Protocol notes: Solubility in water / aqueous systems
Format: physicochemical

| Compound | solubility |
| --- | --- |
| CC(C)(C)NC(=O)N[C@H](C(=O)N1CC2C([C@H]1C(=O)NC(CC1CCC1)C(=O)C(N)=O)C2(C)C)C(C)(C)C (stereo partly shown) | ~600 µg/mL |
